Molecular target: T1, lipase (UniProt P16233 17-465)
T1 sequence (looked up): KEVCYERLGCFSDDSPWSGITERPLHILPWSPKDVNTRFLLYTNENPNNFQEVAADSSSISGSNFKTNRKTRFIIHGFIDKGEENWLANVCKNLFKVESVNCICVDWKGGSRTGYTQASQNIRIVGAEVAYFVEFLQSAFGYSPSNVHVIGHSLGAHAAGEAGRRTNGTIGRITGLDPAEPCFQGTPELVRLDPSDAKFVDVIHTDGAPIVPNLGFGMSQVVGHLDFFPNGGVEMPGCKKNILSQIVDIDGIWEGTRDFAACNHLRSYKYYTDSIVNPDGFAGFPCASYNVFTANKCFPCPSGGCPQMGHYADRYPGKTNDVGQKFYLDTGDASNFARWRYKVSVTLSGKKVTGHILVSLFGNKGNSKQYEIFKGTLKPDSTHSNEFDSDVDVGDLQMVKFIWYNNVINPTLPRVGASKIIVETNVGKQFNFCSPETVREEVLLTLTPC
pKd: −log10 of the molar value. Square brackets hold non-standard residues; d marks the D form.
observable: pKd

Task: Tell us which pKd value is on record for Ac-[dR][dA][dD][dA][dR][dA][dD][dA][dR][dA][dD][dA][dR][dA][dD][dA]-NH2 [Ac-(rada)4-NH2]
Output: ~6.34

The measured values listed here are drawn from paper PMC11341566.
